We begin with a simple list: items and their reported EC50.
SYSTEM: T1, full-length beta-Catenin (Uniprot ID P35222) (Homo sapiens (Human), UniProt P35222 2-781)
T1 construct: Used full-length in both the FP and the AlphaScreen assay; also called B-Catenin; bCat
T1 sequence: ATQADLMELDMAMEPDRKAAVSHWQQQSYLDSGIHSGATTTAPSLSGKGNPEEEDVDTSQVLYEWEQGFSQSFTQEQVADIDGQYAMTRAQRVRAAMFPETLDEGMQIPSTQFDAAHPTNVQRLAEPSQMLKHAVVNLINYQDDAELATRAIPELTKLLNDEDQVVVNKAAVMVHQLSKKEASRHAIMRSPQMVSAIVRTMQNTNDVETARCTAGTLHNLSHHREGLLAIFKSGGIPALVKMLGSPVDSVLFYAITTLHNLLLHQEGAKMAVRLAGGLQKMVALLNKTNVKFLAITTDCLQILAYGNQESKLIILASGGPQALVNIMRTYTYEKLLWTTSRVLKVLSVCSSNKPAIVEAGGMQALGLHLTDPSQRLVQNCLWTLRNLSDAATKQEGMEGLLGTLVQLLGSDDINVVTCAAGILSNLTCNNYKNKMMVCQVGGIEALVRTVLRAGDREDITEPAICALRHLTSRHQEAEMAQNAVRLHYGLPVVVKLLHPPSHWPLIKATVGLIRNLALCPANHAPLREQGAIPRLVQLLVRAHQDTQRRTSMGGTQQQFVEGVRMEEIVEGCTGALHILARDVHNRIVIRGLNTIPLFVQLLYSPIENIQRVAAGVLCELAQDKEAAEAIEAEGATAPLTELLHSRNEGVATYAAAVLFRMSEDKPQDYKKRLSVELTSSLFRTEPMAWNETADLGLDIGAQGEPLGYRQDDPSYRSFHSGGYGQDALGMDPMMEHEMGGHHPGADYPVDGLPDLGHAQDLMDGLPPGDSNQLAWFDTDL
EXPERIMENT SUMMARY: fluorescence polarization competition; full-length beta-catenin, 5FAM-TCF4(10-53) probe
Starred links: 1 amine or outer side, 2 acyl side, 3 side chain; linkers in the order of their positions; H or OH if unused. Positions of bridges follow the written chain, without caps; N, C: chain ends. Non-standard residues stand in square brackets, D forms with d. Primed or numbered codes have the meaning given here. SeN″ = (S)-5-(((allyloxy)carbonyl)(methyl)amino)-2-amino-2-methylpentanoic acid (stapling residue), C=CCOC(=O)N(C)CCC[C@](C)(N[*:1])C(=O)[*:2]; B5(4) = 2,2-bis(4-pentenyl)glycine = 2-amino-2-(pent-4-en-1-yl)hept-6-enoic acid (stitching residue), C=CCCCC(CCCC=C)(N[*:1])C(=O)[*:2]; B5(21) = 2-amino-2-(pent-4-en-1-yl)hept-6-enoic acid, bis(4-pentenyl)glycine (stitching residue), C=CCCCC(CCCC=C)(N[*:1])C(=O)[*:2]; RdN = (R)-4-(((allyloxy)carbonyl)(methyl)amino)-2-amino-2-methylbutanoic acid, C=CCOC(=O)N(C)CC[C@@](C)(N[*:1])C(=O)[*:2]; SdN = (S)-4-(((allyloxy)carbonyl)(methyl)amino)-2-amino-2-methylbutanoic acid, C=CCOC(=O)N(C)CC[C@](C)(N[*:1])C(=O)[*:2]; PyrS = (S)-1-((allyloxy)carbonyl)-3-aminopyrrolidine-3-carboxylic acid, C=CCOC(=O)N1CC[C@@](N[*:1])(C(=O)[*:2])C1; S7 = C[C@@](CCCCCC=[*:3])(N[*:1])C(=O)[*:2]; Phe(4-F) = N[C@@H](Cc1ccc(F)cc1)C(=O)O; αAllylPro = C=CC[C@@]1(C(=O)O)CCCN1; R8 = C=CCCCCCC[C@@](C)(N)C(=O)O
Field: numeric (µM). Do not append units.

Completed entries (count: 4):
BINDER	RESULT UNIT	EC50
Ac-ADI[RdN]DDAAFQ[S7]FWH-NH2 (staple 4-11; not fully specified, Stapled peptide; also called Ac-Ala-Asp-Ile-RdN-Asp-Asp-Ala-Ala-Phe-Gln-S7-Phe-Trp-His-NH2) [I-64]	µM	4.25
Ac-[αAllylPro]DA[B5(4)]DDAAFV[SdN]FWQ-NH2 (staple 1-4, 4-11, Stapled (stitched) peptide; also called Ac-PL3-Asp-Ala-B5-Asp-Asp-Ala-Ala-Phe-Val-SdN-Phe-Trp-Gln-NH2) [I-55]	µM	5
Ac-[αAllylPro]DA[B5(21)]DDAAFV[SeN″]FWQ-NH2 (staple 1-4, 4-11; also: earlier-eluting HPLC isomer, E/Z not given here, Stapled (stitched) peptide; also called Ac-PL3-Asp-Ala-B5-Asp-Asp-Ala-Ala-Phe-Val-SeN-Phe-Trp-Gln-NH2) [I-53]	µM	5
Ac-FDA[R8]DDAA[Phe(4-F)]V[PyrS]FWQ-NH2 (staple 4-11, Stapled peptide; also called Ac-Phe-Asp-Ala-R8-Asp-Asp-Ala-Ala-4FF-Val-PyrS-Phe-Trp-Gln-NH2) [I-78]	µM	5

Request: Quick one: EC50 of Ac-ADI[RdN]DEAAFQ[S7]FWH-NH2 (staple 4-11; not fully specified, Stapled peptide; also called Ac-Ala-Asp-Ile-RdN-Asp-Glu-Ala-Ala-Phe-Gln-S7-Phe-Trp-His-NH2) [I-66] ?
Response: 1.09
